tested on: 616215-338-R-J1-PDC spheroids with HUVEC/MSC, viability; assay: Anticancer human tumor 616215-338-R-J1-PDC patient-derived colon adenocarcinoma cell line growth inhibition [PI3K]; settings: second compound 3.16 µM; first compound 0.0316 µM; active compounds read low
endpoint: viability, T/C (%)
Give the number; % is assumed, so skip it.

Looking up CC(=O)c1c(C)c2cnc(Nc3ccc(N4CCNCC4)cn3)nc2n(C2CCCC2)c1=O + Cc1nc(NC(=O)N2CCCC2C(N)=O)sc1-c1ccnc(C(C)(C)C(F)(F)F)c1 , I found its viability, T/C recorded as 105

Looking up CCN1CCN(Cc2ccc(Nc3ncc(F)c(-c4cc(F)c5nc(C)n(C(C)C)c5c4)n3)nc2)CC1 + Cc1nc(NC(=O)N2CCCC2C(N)=O)sc1-c1ccnc(C(C)(C)C(F)(F)F)c1 , I found its viability, T/C recorded as 106

Looking up Cn1ncc(Cl)c1-c1cc(C(=O)NC(CN)Cc2cccc(F)c2)sc1Cl (stereo not given) + CC(Nc1ncnc2nc[nH]c12)c1cc2cccc(Cl)c2c(=O)n1-c1ccccc1 , I found its viability, T/C recorded as 104

Looking up CC1(C)CCC(CN2CCN(c3ccc(C(=O)NS(=O)(=O)c4ccc(NCC5CCOCC5)c([N+](=O)[O-])c4)c(Oc4cnc5[nH]ccc5c4)c3)CC2)=C(c2ccc(Cl)cc2)C1 + Cc1nc(NC(=O)N2CCCC2C(N)=O)sc1-c1ccnc(C(C)(C)C(F)(F)F)c1 , I found its viability, T/C recorded as 95.6

Looking up Cn1nccc1Nc1nccc(-c2ccn(C(CO)c3ccc(Cl)c(F)c3)c(=O)c2)n1 (stereo not given) + Cc1nc(NC(=O)N2CCCC2C(N)=O)sc1-c1ccnc(C(C)(C)C(F)(F)F)c1 , I found its viability, T/C recorded as 96

###

viability, T/C values by entry
tested on: 616215-338-R-J1-PDC spheroids with HUVEC/MSC, viability; assay: Anticancer human tumor 616215-338-R-J1-PDC cell line growth inhibition [PI3K]; settings: second compound 10 µM; first compound 10 µM; active compounds read low;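 further: spheroids exposed to agents for seven days before the viability read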

# compound, viability, T/C
data = [
    ("CC1(C)CCC(Nc2ncc(C(F)(F)F)c(-c3c[nH]c4c(P(C)(C)=O)c(C#N)ccc34)n2)CN1 (centres undefined) + CC(Nc1ncnc2nc[nH]c12)c1cc2cccc(Cl)c2c(=O)n1-c1ccccc1", "0.61%"),
    ("CC1(C)CCC(Nc2ncc(C(F)(F)F)c(-c3c[nH]c4c(P(C)(C)=O)c(C#N)ccc34)n2)CN1 (centres undefined) + Cc1nc(NC(=O)N2CCCC2C(N)=O)sc1-c1ccnc(C(C)(C)C(F)(F)F)c1", "0.89%"),
    ("C=CC(=O)N1CCN(c2nc(=O)n(-c3c(C)ccnc3C(C)C)c3nc(-c4c(O)cccc4F)c(F)cc23)C(C)C1 (centres undefined) + CC(Nc1ncnc2nc[nH]c12)c1cc2cccc(Cl)c2c(=O)n1-c1ccccc1", "82.6%"),
]

# next compound below
Looking up CC(C)NCC(C(=O)N1CCN(c2ncnc3c2C(C)CC3O)CC1)c1ccc(Cl)cc1 (centres undefined) + CC(Nc1ncnc2nc[nH]c12)c1cc2cccc(Cl)c2c(=O)n1-c1ccccc1 , I found its viability, T/C recorded as 27.8%

###

tested on: 616215-338-R-J1-PDC spheroids with HUVEC/MSC, viability; assay: Anticancer human tumor 616215-338-R-J1-PDC cell line growth inhibition [PI3K]; settings: second compound 1 µM; first compound 3.16 µM; active means viability on the fitted dose curve at most 10% of control; inactive means the rest;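 further: spheroids exposed to agents for seven days before the viability read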
A correct response names exactly one class from T for active, F for inactive

Consider the worked cases shown below.
# molecule, assigned class
records = [
    ("CNC(=O)c1ccc(N2C(=S)N(c3ccc(C#N)c(C(F)(F)F)c3)C(=O)C2(C)C)cc1F + CC(Nc1ncnc2nc[nH]c12)c1cc2cccc(Cl)c2c(=O)n1-c1ccccc1", "F"),
    ("Cn1nccc1Nc1nccc(-c2ccn(C(CO)c3ccc(Cl)c(F)c3)c(=O)c2)n1 (stereo not given) + CC(Nc1ncnc2nc[nH]c12)c1cc2cccc(Cl)c2c(=O)n1-c1ccccc1", "F"),
]

Field: next molecule
Which outcome was entered for the molecule C[C@@H](NC(=O)c1ncnc(N)c1Cl)c1ncc(C(=O)Nc2cc(C(F)(F)F)c(Cl)cn2)s1 + CC(Nc1ccc2c(c1)OCCn1cc(N3C(=O)OCC3C(F)F)nc1-2)C(N)=O in this test?
F

Data provenance: PubChem BioAssay AID1963978
